Recorded values, source patent US10392620B2.

# Test system: Zymoseptoria tritici (SEPTTR-184)
# Experimental details: Efficacy of target gene fragments (MgCytB dsRNA tiles) on wheat plants, SEPTTR-184
# Format: in vivo
# Design: scale not given here
# Test conditions: 200 ppm; 3DC (curative)
# Description: The 200 ppm rate for each treatment was prepared by adding the calculated volume of the corresponding dsRNA solution in TE buffer. Lower rates were prepared as 4-fold dilutions (50 ppm, 12.5 ppm, and 3.12 ppm). A non-target dsRNA control (YFP), a TE/phosphate buffer control, disease pressure control, and clean plant control were included. These plants were inoculated with an aqueous spore suspension of Zymoseptoria tritici either prior to or after fungicidal treatments. […]
Reported metric: Average of 2 trials SEPTTR-184 3DC

# Molecule, Reported metric, Experimental value
records = [
    ("MgCytB-T4: 219 bp dsRNA of Zymoseptoria CytB region T4, location 1-219 (SEQ ID NO:7) (nucleic acid, listed as Zymoseptoria tritici, complementary strand of dsRNA) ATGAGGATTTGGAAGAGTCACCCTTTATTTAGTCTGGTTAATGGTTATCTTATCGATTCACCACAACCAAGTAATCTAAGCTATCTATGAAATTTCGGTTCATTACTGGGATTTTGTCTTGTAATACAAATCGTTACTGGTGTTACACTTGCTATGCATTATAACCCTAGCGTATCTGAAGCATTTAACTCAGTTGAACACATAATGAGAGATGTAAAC", "Average of 2 trials SEPTTR-184 3DC", 83),
    ("MgCytB-T3: 116 bp dsRNA of Zymoseptoria CytB region 3, location 279-394 (SEQ ID NO:6) (nucleic acid, listed as Zymoseptoria tritici, long dsRNA, chemistry not given here, further chemistry not given here) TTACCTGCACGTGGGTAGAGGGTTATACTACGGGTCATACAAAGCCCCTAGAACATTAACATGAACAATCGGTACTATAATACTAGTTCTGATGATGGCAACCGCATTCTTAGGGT", "Average of 2 trials SEPTTR-184 3DC", 84),
    ("MgCytB-T2: 203 bp dsRNA of Zymoseptoria CytB region 2, location 603-805 (SEQ ID NO:5) (nucleic acid, listed as Zymoseptoria tritici, complementary strand of dsRNA) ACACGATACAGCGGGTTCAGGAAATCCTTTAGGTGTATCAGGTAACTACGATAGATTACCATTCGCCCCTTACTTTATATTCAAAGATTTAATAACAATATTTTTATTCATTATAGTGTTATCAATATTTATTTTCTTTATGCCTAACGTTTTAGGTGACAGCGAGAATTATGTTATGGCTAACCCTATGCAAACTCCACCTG", "Average of 2 trials SEPTTR-184 3DC", 90),
    ("MgCytB-T5: 172 bp dsRNA of Zymoseptoria CytB region T5, location 173-344 (SEQ ID NO:8) (nucleic acid, listed as Zymoseptoria tritici, complementary strand of dsRNA) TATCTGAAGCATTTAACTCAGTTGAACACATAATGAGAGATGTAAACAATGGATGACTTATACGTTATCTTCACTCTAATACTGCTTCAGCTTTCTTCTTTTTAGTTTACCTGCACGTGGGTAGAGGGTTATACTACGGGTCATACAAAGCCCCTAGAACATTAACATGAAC", "Average of 2 trials SEPTTR-184 3DC", 80),
    ("MgCytB-T1: 267 bp dsRNA of Zymoseptoria CytB region 1, location 364-630 (SEQ ID NO:4) (nucleic acid, listed as Zymoseptoria tritici, complementary strand of dsRNA) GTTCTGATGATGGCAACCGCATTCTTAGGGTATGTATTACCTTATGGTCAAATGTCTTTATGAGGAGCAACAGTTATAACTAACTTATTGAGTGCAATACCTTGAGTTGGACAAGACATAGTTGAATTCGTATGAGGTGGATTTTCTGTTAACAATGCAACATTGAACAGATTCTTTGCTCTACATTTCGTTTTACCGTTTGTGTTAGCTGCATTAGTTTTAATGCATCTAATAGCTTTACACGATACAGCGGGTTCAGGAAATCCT", "Average of 2 trials SEPTTR-184 3DC", 85),
]
